biological target: HIV-1 NL4-3 Env on infected cells (HIV-1 group M subtype B, NL4-3 (pNL4-3 …, strain))
RESULT TYPE: binding result

binder="c7565 (antibody, V domains shown) VH: QVRLEERGPGLVKPSETLSLVCGVSGYTMSGLWSTTYDWNWIRQSAGGRPEWIGRIYVGGPAQYNPAFKDRVAFSIDLSKNELSLTLTSVTAADSATYFCARGGDTFHPRYWYTMNIWGSGTKVIVSS VL: DIQLTQSPSTVSASVGDRITMSCRANKSLDVWVAWFRRRPGKAPEHLIYRRDYVWGGLPSRFSGSGSGTEFTLTISSLQAGDFGTYYCHQYKDQPWTFGQGTRVDLK" result=binds
binder="c5539 (antibody, V domains shown) VH: QVRLEQWGPGLLKPSETLSLTCAVYGESFDDYSWTWIRQTPSLGLQWIGEIRPFGEIVHKSSLSGRLSFSRDASMRRVYLKLTSVTAADAGVYFCARGPVIYQNPHFYYRGYNVWGQGTTVTVSA VL: DVAVTQSPRSLVVTPGETATIFCRSSQSLRHGNGMHYLDWYLQKPGQSPQLLIYLTSNRASGVPDRFSGSGSGTEFTLKISRVEADDVGIYYCMQAIQDPRVFGQGTRLELK" result=binds
binder="c8597 (antibody, V domains shown) VH: EVKLEASGGGLAQPGQSLRLSCIGSGFKFADYGLSWVRQTPGKGLQWVGFIRGRGSEATKHYAASVAGRFSMSRDDSKNIAYLQMKNLKTYDTGVYYCAREQYSFDFWSGYEDPYYYYMDLWGRGTTVTVSS VL: DIQMTQSPAALSASIGDRVTISCRASQNIRDWVAWYQQKPGKAPNLLIYRASTLQTAIPSRFSASGFGTDFTLTISSLQPDDFATYFCQHYNSHFTGYSFGQGTKLEIK" result=binds
